Target: T1, Human CD3eg linker (human)
T1 construct: Single chain: epsilon and gamma subunits of human CD3 joined by a 29-mer linker, Flag-tag at the C-terminus; also called recombinant human CD3
T1 chain: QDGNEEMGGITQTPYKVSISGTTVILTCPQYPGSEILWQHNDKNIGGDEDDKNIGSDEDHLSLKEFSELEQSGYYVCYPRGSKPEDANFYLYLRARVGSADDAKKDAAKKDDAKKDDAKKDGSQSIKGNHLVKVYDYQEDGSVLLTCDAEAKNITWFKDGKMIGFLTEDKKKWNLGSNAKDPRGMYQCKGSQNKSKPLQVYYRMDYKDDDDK
Assay: Biacore SPR, vs template H183/L072
In this section we review reported fold change of affinity values for a set of binders.
Respond numerically; units are fold and should not be typed.

Check out these entries, answers already filled in.
BINDER	MEASURED QUANTITY	NUMERIC VALUE
H183/L072 VH D52aH (antibody, name in Kabat numbering, V domains shown) VH: QVQLVESGGGLVQPGRSLRLSCAASGFTFSNAWMHWVRQAPGKGLEWVAQIKHKGNAYAAYYAPSVKGRFTISRDDSKNSIYLQMNSLKTEDTAVYYCHYVHYASASTVLPAFGVDAWGQGTTVTVSS VL: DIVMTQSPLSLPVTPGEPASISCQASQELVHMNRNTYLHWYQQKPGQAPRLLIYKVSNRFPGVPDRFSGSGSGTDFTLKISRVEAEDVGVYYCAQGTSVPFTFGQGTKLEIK	fold change of affinity	0.3
H183/L072 VH A54T (antibody, name in Kabat numbering, V domains shown) VH: QVQLVESGGGLVQPGRSLRLSCAASGFTFSNAWMHWVRQAPGKGLEWVAQIKDKGNTYAAYYAPSVKGRFTISRDDSKNSIYLQMNSLKTEDTAVYYCHYVHYASASTVLPAFGVDAWGQGTTVTVSS VL: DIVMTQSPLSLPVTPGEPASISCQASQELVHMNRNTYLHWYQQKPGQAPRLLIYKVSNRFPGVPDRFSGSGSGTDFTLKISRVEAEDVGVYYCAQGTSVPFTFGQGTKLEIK	fold change of affinity	0.9
H183/L072 VH A56P (antibody, name in Kabat numbering, V domains shown) VH: QVQLVESGGGLVQPGRSLRLSCAASGFTFSNAWMHWVRQAPGKGLEWVAQIKDKGNAYPAYYAPSVKGRFTISRDDSKNSIYLQMNSLKTEDTAVYYCHYVHYASASTVLPAFGVDAWGQGTTVTVSS VL: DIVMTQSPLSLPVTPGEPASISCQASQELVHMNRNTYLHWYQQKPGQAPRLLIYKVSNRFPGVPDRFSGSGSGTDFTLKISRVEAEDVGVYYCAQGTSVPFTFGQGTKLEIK	fold change of affinity	0.3
H183/L072 VH D52aK (antibody, name in Kabat numbering, V domains shown) VH: QVQLVESGGGLVQPGRSLRLSCAASGFTFSNAWMHWVRQAPGKGLEWVAQIKKKGNAYAAYYAPSVKGRFTISRDDSKNSIYLQMNSLKTEDTAVYYCHYVHYASASTVLPAFGVDAWGQGTTVTVSS VL: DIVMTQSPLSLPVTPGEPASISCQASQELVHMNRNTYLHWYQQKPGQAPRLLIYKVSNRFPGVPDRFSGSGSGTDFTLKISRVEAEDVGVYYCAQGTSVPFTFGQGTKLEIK	fold change of affinity	0

Next:
Request: Suppose we examine the binder H183/L072 VH A60V (antibody, name in Kabat numbering, V domains shown) VH: QVQLVESGGGLVQPGRSLRLSCAASGFTFSNAWMHWVRQAPGKGLEWVAQIKDKGNAYAAYYVPSVKGRFTISRDDSKNSIYLQMNSLKTEDTAVYYCHYVHYASASTVLPAFGVDAWGQGTTVTVSS VL: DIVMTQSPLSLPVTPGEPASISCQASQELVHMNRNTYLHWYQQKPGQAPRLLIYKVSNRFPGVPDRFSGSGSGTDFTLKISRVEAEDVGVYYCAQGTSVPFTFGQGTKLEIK ; what fold change of affinity value has been reported?
Response: 1
